Below are Ki values measured for 5-HT1A receptor (Homo sapiens).
Give bare numbers, in µM.

A selection of reference data follows.
>>> numeric_result("Cl.Nc1nc(NCCNc2ccc(F)cc2)nc(NCCc2c[nH]c3ccccc23)n1")
43.3
>>> numeric_result("Cl.N#Cc1ccc2[nH]cc(CCNc3nc(N)nc(NCCc4ccccc4)n3)c2c1")
13
>>> numeric_result("COc1ccc(Nc2nc(N)nc(NCCc3c[nH]c4ccccc34)n2)cc1.Cl")
79.8

Please report Ki for every entry that follows.
1. Cl.Nc1nc(NCCNc2ccc(Cl)cc2)nc(NCCc2c[nH]c3ccccc23)n1
2. Cl.Nc1nc(NCCc2c[nH]c3ccccc23)nc(Nc2cccc(Cl)c2)n1

Response:
1. 16.2
2. 14.1
